Tested on: anti-Aβ antibodies in sera of vaccinated patients
Test: Epitope mapping, competitive binding inhibition EIA with patient sera (10-mer peptides, IC50)
Design: species or system human; unit not given here
Conditions: serum 16 wpi of vaccinated patient P210
The following substances are listed with their measured Epitope mapping, fine specificity analysis, serum of subject P210 values.
READOUT_NAME: Epitope mapping, fine specificity analysis, serum of subject P210

INSERT INTO assay_data (substance, test_target, result) VALUES
  ('16 (MDAEFRHDSG; PEPTIDE (1)..(10) Abeta -1-9 or APP 770(M671-G680); listed as Homo sapiens) [compound 16]', 'anti-Aβ antibodies in sera of vaccinated patients', 121),
  ('24 (GYEVHHQKLV; PEPTIDE (1)..(10) Abeta 9-18 or APP 770(G680-V689); listed as Homo sapiens) [compound 24]', 'anti-Aβ antibodies in sera of vaccinated patients', 0),
  ('21 (HDSGYEVHHQ; PEPTIDE (1)..(10) Abeta 6-15 or APP 770(H677-Q686); listed as Homo sapiens) [compound 21]', 'anti-Aβ antibodies in sera of vaccinated patients', 0);

----------
System: anti-Aβ antibodies in sera of vaccinated patients
Assay: Epitope mapping, competitive binding inhibition EIA with patient sera (10-mer peptides, IC50)
Set-up: species or system human
Settings: serum 16 wpi of vaccinated patient P108
READOUT_NAME: Epitope mapping, fine specificity analysis, serum of subject P108

INSERT INTO measurements (substance, result_number) VALUES
  ('28 (HHQKLVFFAE; PEPTIDE (1)..(10) Abeta 13-22 or APP 770(H684-E693); listed as Homo sapiens) [compound 28]', 0),
  ('29 (HQKLVFFAED; PEPTIDE (1)..(10) Abeta 14-23 or APP 770(H685-D694); listed as Homo sapiens) [compound 29]', 0),
  ('30 (QKLVFFAEDV; PEPTIDE (1)..(10) Abeta 15-24 or APP 770(Q686-V695); listed as Homo sapiens) [compound 30]', 0),
  ('9 (EEISEVKMDA; PEPTIDE (1)..(10) Abeta -8-2 or APP 770(E664-A673); listed as Homo sapiens) [compound 9]', 0),
  ('19 (FRHDSGYEVH; PEPTIDE (1)..(10) Abeta 4-13 or APP 770(F675-H684); listed as Homo sapiens) [compound 19]', 0),
  ('16 (MDAEFRHDSG; PEPTIDE (1)..(10) Abeta -1-9 or APP 770(M671-G680); listed as Homo sapiens) [compound 16]', 0);

----------
Tested on: anti-Aβ antibodies in sera of vaccinated patients
Assay: Epitope mapping, competitive binding inhibition EIA with patient sera (10-mer peptides, IC50)
Design: species or system human
Conditions: serum 16 wpi of vaccinated patient P102
Measured Epitope mapping, fine specificity analysis, serum of subject P102, listed per entry.
READOUT_NAME: Epitope mapping, fine specificity analysis, serum of subject P102

INSERT INTO results (substance, result_number) VALUES
  ('23 (SGYEVHHQKL; PEPTIDE (1)..(10) Abeta 8-17 or APP 770(S679-L688); listed as Homo sapiens) [compound 23]', 0),
  ('15 (KMDAEFRHDS; PEPTIDE (1)..(10) Abeta -2-8 or APP 770(K670-S679); listed as Homo sapiens) [compound 15]', 0),
  ('17 (AEFRHDSGYE; PEPTIDE (1)..(10) Abeta 2-11 or APP 770(A673-E682); listed as Homo sapiens) [compound 17]', 0);

----------
Tested on: anti-Aβ antibodies in macaque antisera
Test: Specificity analysis (10-mer peptide ELISA) of antisera from Cynomolgus macaques
Format: binding
Conditions: antisera of macaques given UBI AD Vaccine 750 μg/dose; 9 WPI
Classify: T when Reactivity of antisera with peptide (specificity analysis ELISA) is strictly less than 0.06; F when Reactivity of antisera with peptide (specificity analysis ELISA) is not.

INSERT INTO measurements (substance, test_target, classification) VALUES
  ('15 (KMDAEFRHDS; PEPTIDE (1)..(10) Abeta -2-8 or APP 770(K670-S679); listed as Homo sapiens) [compound 15]', 'anti-Aβ antibodies in macaque antisera', 'F'),
  ('11 (ISEVKMDAEF; PEPTIDE (1)..(10) Abeta -6-4 or APP 770(I666-F675); listed as Homo sapiens) [compound 11]', 'anti-Aβ antibodies in macaque antisera', 'F'),
  ('13 (EVKMDAEFRH; PROPEP (1)..(10) Abeta -4-6 or APP 770(E668-H677); listed as Homo sapiens) [compound 13]', 'anti-Aβ antibodies in macaque antisera', 'T'),
  ('16 (MDAEFRHDSG; PEPTIDE (1)..(10) Abeta -1-9 or APP 770(M671-G680); listed as Homo sapiens) [compound 16]', 'anti-Aβ antibodies in macaque antisera', 'T'),
  ('19 (FRHDSGYEVH; PEPTIDE (1)..(10) Abeta 4-13 or APP 770(F675-H684); listed as Homo sapiens) [compound 19]', 'anti-Aβ antibodies in macaque antisera', 'F'),
  ('10 (EISEVKMDAE; PEPTIDE (1)..(10) Abeta -7-3 or APP 770(E665-E674); listed as Homo sapiens) [compound 10]', 'anti-Aβ antibodies in macaque antisera', 'F'),
  ('30 (QKLVFFAEDV; PEPTIDE (1)..(10) Abeta 15-24 or APP 770(Q686-V695); listed as Homo sapiens) [compound 30]', 'anti-Aβ antibodies in macaque antisera', 'F'),
  ('12 (SEVKMDAEFR; PEPTIDE (1)..(10) Abeta -5-5 or APP 770(S667-R676); listed as Homo sapiens) [compound 12]', 'anti-Aβ antibodies in macaque antisera', 'T'),
  ('9 (EEISEVKMDA; PEPTIDE (1)..(10) Abeta -8-2 or APP 770(E664-A673); listed as Homo sapiens) [compound 9]', 'anti-Aβ antibodies in macaque antisera', 'F'),
  ('21 (HDSGYEVHHQ; PEPTIDE (1)..(10) Abeta 6-15 or APP 770(H677-Q686); listed as Homo sapiens) [compound 21]', 'anti-Aβ antibodies in macaque antisera', 'F'),
  ('17 (AEFRHDSGYE; PEPTIDE (1)..(10) Abeta 2-11 or APP 770(A673-E682); listed as Homo sapiens) [compound 17]', 'anti-Aβ antibodies in macaque antisera', 'T'),
  ('22 (DSGYEVHHQK; PEPTIDE (1)..(10) Abeta 7-16 or APP 770(D678-K687); listed as Homo sapiens) [compound 22]', 'anti-Aβ antibodies in macaque antisera', 'F'),
  ('25 (YEVHHQKLVF; PEPTIDE (1)..(10) Abeta 10-19 or APP 770(Y681-F690); listed as Homo sapiens) [compound 25]', 'anti-Aβ antibodies in macaque antisera', 'F'),
  ('29 (HQKLVFFAED; PEPTIDE (1)..(10) Abeta 14-23 or APP 770(H685-D694); listed as Homo sapiens) [compound 29]', 'anti-Aβ antibodies in macaque antisera', 'T');

----------
Tested on: anti-Aβ antibodies in sera from vaccinated baboons
Assay: Epitope mapping, 10-mer peptide-based ELISA with sera from vaccinated baboons
Details: peptide as plate coating, 84 weeks post immunization
Rule: true (1) for ELISA Titer titers (Log10) not less than 0.2 Log10, false (0) for anything less.

INSERT INTO results (substance, classification) VALUES
  ('8 (TEEISEVKMD) [Peptide 8]', 'false (0)'),
  ('25 (YEVHHQKLVF) [Peptide 25]', 'false (0)'),
  ('15 (KMDAEFRHDS) [Peptide 15]', 'true (1)'),
  ('29 (HQKLVFFAED) [Peptide 29]', 'false (0)'),
  ('28 (HHQKLVFFAE) [Peptide 28]', 'false (0)'),
  ('22 (DSGYEVHHQK) [Peptide 22]', 'true (1)');

----------
System: anti-Aβ antibodies in sera of vaccinated patients
Test: Epitope mapping, competitive binding inhibition EIA with patient sera (10-mer peptides, IC50)
Design: species or system human; unit not given here
Conditions: serum 16 wpi of vaccinated patient P210
Examples of substances with documented Epitope mapping, fine specificity analysis, serum of subject P210 follow.
READOUT_NAME: Epitope mapping, fine specificity analysis, serum of subject P210

INSERT INTO results (substance, test_target, result_number) VALUES
  ('10 (EISEVKMDAE; PEPTIDE (1)..(10) Abeta -7-3 or APP 770(E665-E674); listed as Homo sapiens) [compound 10]', 'anti-Aβ antibodies in sera of vaccinated patients', 0),
  ('17 (AEFRHDSGYE; PEPTIDE (1)..(10) Abeta 2-11 or APP 770(A673-E682); listed as Homo sapiens) [compound 17]', 'anti-Aβ antibodies in sera of vaccinated patients', 0),
  ('11 (ISEVKMDAEF; PEPTIDE (1)..(10) Abeta -6-4 or APP 770(I666-F675); listed as Homo sapiens) [compound 11]', 'anti-Aβ antibodies in sera of vaccinated patients', 0),
  ('18 (EFRHDSGYEV; PEPTIDE (1)..(10) Abeta 3-12 or APP 770(E674-V683); listed as Homo sapiens) [compound 18]', 'anti-Aβ antibodies in sera of vaccinated patients', 0),
  ('13 (EVKMDAEFRH; PROPEP (1)..(10) Abeta -4-6 or APP 770(E668-H677); listed as Homo sapiens) [compound 13]', 'anti-Aβ antibodies in sera of vaccinated patients', 0),
  ('14 (VKMDAEFRHD; PEPTIDE (1)..(10) Abeta -3-7 or APP 770(V669-D678); listed as Homo sapiens) [compound 14]', 'anti-Aβ antibodies in sera of vaccinated patients', 13);
